Tested Target: T1, human ACVR2A (human, UniProt P27037 20-135, limits assumed); note: test concentration or dose not given here
T1 construct: also called activin receptor, type II A
T1 sequence (P27037 20-135 limits assumed): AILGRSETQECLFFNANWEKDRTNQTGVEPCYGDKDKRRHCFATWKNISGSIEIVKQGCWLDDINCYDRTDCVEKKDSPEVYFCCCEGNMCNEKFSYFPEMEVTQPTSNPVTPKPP
Assay Text: ELISA
Procedure: The binding of ACVR2A-specific monoclonal antibodies to human ACVR2A, mouse ACVR2A, biotinylated goat anti-human kappa light chain (positive control) and human Fc (negative control) were determined by ELISA.
Measured optical density, listed per entry.
The answer is to be given in OD; state only the numeric part.

Recorded optical density, per entry:
# Binder, optical density [OD]
measured = [
    ("367_D02 (antibody, V domains shown, VH and VL only) VH: EVQLLESGGGLVQPGGSLRLSCAASGFTFDDYSMNWVRQAPGKGLEWVSNINYNGGYTSYADSVKGRFTISRDNSKNTLYLQMNSLRAEDTAVYYCARSATWHDTHLDYWGQGTLVTVSS VL: DIQMTQSPSSLSASVGDRVTITCRASQSIVTYVNWYQQKPGKAPKLLIYAATSRASGVPSRFSGSGSGTDFTLTISSLQPEDFATYYCQQSYENPLTFGGGTKVEIK", 2.46),
    ("374_C07 (antibody, V domains shown, VH and VL only) VH: EVQLLESGGGLVQPGGSLRLSCAASGFTFDSYSMNWVRQAPGKGLEWVSNINYNGGYTSYADSVKGRFTISRDNSKNTLYLQMNSLRAEDTAVYYCARSATWHDTHLDYWGQGTLVTVSS VL: DIQMTQSPSSLSASVGDRVTITCRASQSIISYLNWYQQKPGKAPKLLIYAATSRASGVPSRFSGSGSGTDFTLTISSLQPEDFATYYCQQSDELPLTFGGGTKVEIK", 3.65),
    ("366_F06 (antibody, V domains shown, VH and VL only) VH: EVQLLESGGGLVQPGGSLRLSCAASGFTFSDYGMNWVRQAPGKGLEWVSSINYNGGYTSYADSVKGRFTISRDNSKNTLYLQMNSLRAEDTAVYYCARSATWHDTHLDYWGQGTLVTVSS VL: DIQMTQSPSSLSASVGDRVTITCRASQSISTYLNWYQQKPGKAPKLLIYAATSLASGVPSRFSGSGSGTDFTLTISSLQPEDFATYYCQQSYSNPLTFGGGTKVEIK", 1.87),
    ("367_G08 (antibody, V domains shown, VH and VL only) VH: EVQLLESGGGLVQPGGSLRLSCAASGFTFDSYGMNWVRQAPGKGLEWVSNINYNGGYKGYADSVKGRFTISRDNSKNTLYLQMNSLRAEDTAVYYCARSATWHDTHLDYWGQGTLVTVSS VL: DIQMTQSPSSLSASVGDRVTITCRASQSILSYLNWYQQKPGKAPKLLIYAATSRASGVPSRFSGSGSGTDFTLTISSLQPEDFATYYCQQSYENPLTFGGGTKVEIK", 2.69),
]

Task item: What value of optical density has been recorded for this entry: 374_E04 (antibody, V domains shown, VH and VL only) VH: EVQLLESGGGLVQPGGSLRLSCAASGFTFSSYSMNWVRQAPGKGLEWVSGINYNSGYKSYADSVKGRFTISRDNSKNTLYLQMNSLRAEDTAVYYCARSATWHDTHLDYWGQGTLVTVSS VL: DIQMTQSPSSLSASVGDRVTITCRASQSILSYLNWYQQKPGKAPKLLIYAVTSRASGVPSRFSGSGSGTDFTLTISSLQPEDFATYYCQQSYNNPLTFGGGTKVEIK
Reply: 3.74
